Origin of the recorded values: a melting point compilation (Tetko et al.; mined from patent text by program, amines drawn as free bases though some values may be those of a salt)

Readout Kind: melting point

Previously resolved entries follow.
Ask: # query: melting point of entry CCNc1c(OC)cc(C(O)CS(C)(=O)=O)cc1OC (centres undefined)
Reply: 121 to 122 °C

Ask: # query: melting point of entry `N#Cc1c(N)nn(-c2c(Cl)cc(C(F)(F)F)cc2Cl)c1N`
Reply: 208 to 210 °C

Ask: # query: melting point of entry CCCCC(CC(=O)Nc1cc(C(N)=O)ccc1C(C)(C)C)c1cc(Cl)c(OC)cc1OC (centres undefined)
Reply: 212 to 214 °C

Now examine the next entry.
Ask: # query: melting point of entry `CCCc1nc(SC(F)F)c(C(=O)O)n1Cc1ccc(-c2ccccc2S(=O)(=O)NC(=O)NCc2ccccc2Cl)cc1`
Reply: 134 °C

###

# melting point per record follows

Previously resolved entries follow.
Ask: # query: melting point of entry `CCc1cc2cc(CC(=O)O)c(Cl)c(Cl)c2s1`
Reply: 179 to 181 °C

Ask: # query: melting point of entry `COC(=O)C1=C(O)c2ccccc2S(=O)(=O)N1`
Reply: 173 to 175 °C

Next:
Ask: # query: melting point of entry `COc1cc2c(CC#N)c(Br)[nH]c2cc1Br`
Reply: 169 to 171 °C

###

# melting point per record follows

Previously resolved entries follow.
Ask: # query: melting point of entry `CSc1ncc(Oc2cnccc2C)c(=O)[nH]1`
Reply: 162 to 164 °C

Ask: # query: melting point of entry `N#CC(=O)c1ccccc1CF`
Reply: 41 °C

Ask: # query: melting point of entry `Cc1nc(N)nc(N)c1N1CCN(c2ccc(C=NOCC(=O)OCCc3ccccc3)cc2)CC1`
Reply: 255 to 257 °C

Ask: # query: melting point of entry `CCCCCCCCCCCCCCCCCC(=O)NCCS`
Reply: 63 to 65 °C

Ask: # query: melting point of entry `O=C(NCc1ccccc1)c1cc(O)c(O)c([N+](=O)[O-])c1`
Reply: 185 to 189 °C

Ask: # query: melting point of entry O=C(C1Nc2cc(F)ccc2-n2cnc(-c3nc(C4CC4)no3)c21)N1CCOCC1 (stereo unspecified)
Reply: 240 to 242 °C

Ask: # query: melting point of entry `CON=C(c1ccccc1O)n1ccnc1`
Reply: 104 °C

Ask: # query: melting point of entry `C=CCN(C)c1nc(-c2cc(OC)c(OC)c(OC)c2)nc2sc(C#N)c(C)c12`
Reply: 162 to 164 °C

Ask: # query: melting point of entry `O=C(Sc1ccccn1)c1ccc(Br)cc1`
Reply: 69 to 70 °C

Ask: # query: melting point of entry CC1(CCl)Oc2ccc([N+](=O)[O-])cc2O1 (stereo unspecified)
Reply: 72 to 73 °C

Now examine the next entry.
Ask: # query: melting point of entry CNC(=O)c1ccc(F)c2c1CC(N(CCCc1c[nH]c3ccc(F)cc13)C1CCC1)CO2 (stereo unspecified)
Reply: 132 °C

###

# melting point per record follows

Previously resolved entries follow.
Ask: # query: melting point of entry CC(=O)NC(C)Cc1cc2c(cc1CC(=O)O)OCO2 (centres undefined)
Reply: 195 to 197 °C

Ask: # query: melting point of entry `Cn1ncc2[nH]c3ccc(Cc4cccc([N+](=O)[O-])c4)cc3c(=O)c21`
Reply: 279 to 283 °C

Ask: # query: melting point of entry CC12C=CCC1C1CC=C3CC(O)CCC3(CO)C1CC2 (centres undefined)
Reply: 169 to 171 °C

Now examine the next entry.
Ask: # query: melting point of entry `C=CS(=O)(=O)C=CSc1ccc(C(C)(C)C)cc1`
Reply: 62 to 64 °C
